molecular target: T1, recombinant human DLL4 (human, UniProt Q9NR61 25-522); assay: competition AlphaScreen, biot-hDLL4/hNotch1-Fc
T1 construct: also called rhDLL4; hDLL4
T1 sequence (Q9NR61 25-522): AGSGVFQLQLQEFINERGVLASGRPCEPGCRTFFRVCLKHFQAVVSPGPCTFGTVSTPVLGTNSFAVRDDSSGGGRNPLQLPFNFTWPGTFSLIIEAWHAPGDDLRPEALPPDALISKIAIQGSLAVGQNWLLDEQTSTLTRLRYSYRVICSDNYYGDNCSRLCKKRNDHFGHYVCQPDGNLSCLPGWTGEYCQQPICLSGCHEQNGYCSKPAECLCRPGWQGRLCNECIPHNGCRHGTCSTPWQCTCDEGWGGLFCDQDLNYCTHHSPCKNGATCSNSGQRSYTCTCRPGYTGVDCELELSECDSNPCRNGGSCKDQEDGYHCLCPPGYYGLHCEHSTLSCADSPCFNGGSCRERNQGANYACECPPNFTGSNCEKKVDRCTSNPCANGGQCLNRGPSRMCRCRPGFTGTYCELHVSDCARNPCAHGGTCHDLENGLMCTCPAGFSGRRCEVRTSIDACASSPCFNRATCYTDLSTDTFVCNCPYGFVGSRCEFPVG
Classify by IC50. Ranges: lowest: < 0.7 nM; middle: ≥ 0.7 nM and < 2 nM; highest: ≥ 2 nM

[
  {
    "binder": "DLLBII56A09 (VHH, also called 56A9; DLLBII56A9) VHH: EVQLVESGGGLVQPGGSLRLSCAASGFTFDDYAIGWFRQAPGKEPEGISCISSSGGITYYADSVKGRFTTSRDNAKNTVYLQMNSLKPEDTAVYYCATPGIAACRGIHYTGQGTQVTVSS",
    "class.name": "middle"
  }
]

QUERY: Which class is correct for the following binder? DLLBII62C11 (VHH) VHH: EVQLMESGGGLVQPGGSLRLSCVAAGFTFSNYYMSWVRQAPGKGLEWVSVISPDGSNTYYADTVKGRFTISRGNAKNTLFLQMTGLKSEDAAVYYCARGSGSWGVHGQGTQVTVSS
RESULT: highest

QUERY: GET /class?item= DLLBII56H08 (VHH) VHH: EVQLVESGGGLVQPGGSLRLSCAASGFTFDDYAIGWFRQAPGKEPEEISCISSSGGITYYADSVKGRFTISRDNAKNTVYLQMNSLKPEDTAVYYCATPGIAACRGIHYTGQGTQVTVSS
RESULT: middle
